Data provenance: ChEMBL document CHEMBL5550093

As shown below, each of these compounds has a reported IC20 value.
test system: PC-3; assay: Antiproliferative activity against human PC-3 cells incubated for 48 hrs by MTT assay; assay type: functional, cell-based; conditions: PC-3, time 48 hrs
Please give a number only; it is taken to be in nM.

Record excerpt, results attached:
[
  {
    "STRUCTURE STRING": "COc1cccc(C(F)(F)c2nc(N(C)c3ccc(OC)c(OC)c3)c3ccccc3n2)c1",
    "TARGET OR TEST SYSTEM": "PC-3",
    "VALUE MEASURED": 981
  },
  {
    "STRUCTURE STRING": "CCOC(=O)c1[nH]c(-c2ccc(Nc3nc(C(=O)c4ccccc4)nc4ccc(F)cc34)cc2)nc1C",
    "TARGET OR TEST SYSTEM": "PC-3",
    "VALUE MEASURED": 7510
  },
  {
    "STRUCTURE STRING": "COc1ccc(N(C)c2nc([C@@H](N)C(C)C)nc3ccccc23)cc1",
    "TARGET OR TEST SYSTEM": "PC-3",
    "VALUE MEASURED": 7600
  }
]

QUERY: Find IC20 (PC-3) for the entry COc1ccc(N(C)c2nc(C(F)(F)c3cccc(OC)c3)nc3ccccc23)cc1
RESULT: 250

QUERY: Find IC20 (PC-3) for the entry COc1ccc(N(C)c2nc(C(=O)c3cccc(OC)c3)nc3ccccc23)cc1
RESULT: 975

* * *

As shown below, each of these molecules has a reported IC50 at 48 h value.
assay: Antiproliferative activity against HEK293T cells incubated for 48 hrs by MTT assay; format: toxicity, cell-based, HEK-293T; settings: human
Please give a number only; it is taken to be in µM.

Record excerpt, results attached:
[
  {
    "STRUCTURE STRING": "COc1ccc(N(C)c2nc(C(F)(F)c3cccc(OC)c3)nc3ccccc23)cc1",
    "UNITS SYMBOL": "µM",
    "VALUE MEASURED": 2.1
  },
  {
    "STRUCTURE STRING": "COc1ccc(N(C)c2nc(C(=O)c3cccc(OC)c3)nc3ccccc23)cc1",
    "UNITS SYMBOL": "µM",
    "VALUE MEASURED": 6.4
  },
  {
    "STRUCTURE STRING": "CCOC(=O)c1[nH]c(-c2ccc(Nc3nc(C(=O)c4ccccc4)nc4ccc(F)cc34)cc2)nc1C",
    "UNITS SYMBOL": "µM",
    "VALUE MEASURED": 6.2
  }
]

QUERY: # get_value(readout='IC50 at 48 h', item= CC(C)(CN1C(=O)C(Cl)=C(Cl)C1=O)CN1C(=O)C(Cl)=C(Cl)C1=O )
RESULT: 3.1

QUERY: # get_value(readout='IC50 at 48 h', item= COc1cccc2c1C(=O)c1c(O)c3c(c(O)c1C2=O)C[C@@](O)(C(=O)CO)C[C@@H]3O[C@H]1C[C@H](N)[C@H](O)[C@H](C)O1 )
RESULT: 2.4

QUERY: # get_value(readout='IC50 at 48 h', item= COc1cccc(C(F)(F)c2nc(N(C)c3ccc(OC)c(OC)c3)c3ccccc3n2)c1 )
RESULT: 1.1

QUERY: # get_value(readout='IC50 at 48 h', item= COc1ccc(N(C)c2nc([C@@H](N)C(C)C)nc3ccccc23)cc1 )
RESULT: 7.9
